# PROTOCOL_NOTES: Cyclic voltammetry in anhydrous DMF
# Type: physicochemical
# STUDY_CONDITIONS: vs SCE, irreversible peak potential, glassy carbon, 0.10 M TBAP, 100 mV/s, 25 °C
RECORDED_METRIC: Epc, Co(III/II)

CC(C=NN=C(N)[S-])=NN=C(N)[S-].NCc1ccccc1.NCc1ccccc1.O=[N+]([O-])[O-].[Co+3] [[Co(PTS)(BnA)2]^+]: –0.84 V
CC(C=NN=C(N)[S-])=NN=C(N)[S-].O=[N+]([O-])[O-].[Co+3].c1c[nH]cn1.c1c[nH]cn1 [[Co(PTS)(Im)2]^+]: –0.84 V
